Parameter melting point: see the listing below.

MOLECULE: CC(C)N1CCN(CC(=O)Nc2nc(-c3ccco3)c(C(=O)c3ccccn3)s2)CC1 [Compound 274]
melting point: 154 to 155 °C
--
MOLECULE: O=C(Nc1nc(-c2ccco2)c(C(=O)C2CCOCC2)s1)c1ccc(CN2CCC(O)CC2)cc1 [Compound 481]
melting point: 194 to 195 °C
--
MOLECULE: O=C(c1ccccn1)c1sc(NC(=O)N2CCCCC2)nc1-c1ccco1 [Compound 257]
melting point: 182 to 185 °C
--
MOLECULE: O=C(Nc1nc(-c2ccco2)c(C(=O)c2ccc(=O)n(Cc3ccccc3)c2)s1)c1ccncc1 [Compound 364]
melting point: 265 to 282 °C (dec.)
--
MOLECULE: O=C(c1ccccn1)c1sc(NC(=O)C2CCC2)nc1-c1ccco1 [Compound 193]
melting point: 165 to 170 °C

Query: What value of melting point has been reported for the following molecule? O=C(CN1CCOCC1)Nc1nc(-c2ccco2)c(C(=O)c2ccccn2)s1 [Compound 264]
Result: 170 to 171 °C

Query: Likewise for COc1cccc(C(=O)Nc2nc(-c3ccco3)c(C(=O)C3CCC(=O)CC3)s2)c1 [Compound 451] ?
Result: 176 to 183 °C
